Cited source for all entries: PubChem BioAssay

- target.desc: Dihydroorotate dehydrogenase (quinone), mitochondrial (Plasmodium falciparum (isolate 3D7))
- test.method.notes: PfDHODH enzyme inhibitors, primary screen, biochemical, C-terminal His tag, absorbance 600 nm (AID 1175);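 also: recombinant parasite enzyme with a five histidine tag at its C terminus; test concentration not given here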
- run.parameters: DCIP absorbance 600 nm, higher = more signal, called active from +8 up or from −8 down
reported.endpoint: composite z-score
No unit in the answer, please; the number alone is enough.

Sample answers from the record:
What measured composite z-score goes with CS(=O)(=O)CCOC(=O)C1=CC(c2ccc(CO)cc2)=CC(C2CC2)N(Cc2cc3c(cc2Br)OCO3)C=C1C(=O)OCCS(C)(=O)=O (centres undefined) ?
-0.735

What measured composite z-score goes with COc1ccc([Si](C)(C)[C@@H]2[C@@H](CCn3cc([C@H](O)c4ccccc4)nn3)O[C@]3(C(=O)N(Cc4cccc(N5CCOC5=O)c4)c4ccccc43)[C@H]2C)cc1 ?
0.539

What measured composite z-score goes with C=CCNC(=O)[C@@H]1[C@H]2C(=O)O[C@H](c3ccccc3)[C@H](c3ccccc3)N2[C@H](c2ccc(O)cc2)[C@@]12C(=O)N(C(=O)OCCOC)c1ccccc12 ?
-0.186

// below: composite z-score requested for another compound
What measured composite z-score goes with CC(=O)C1=CCC(c2ccccc2)N(S(=O)(=O)c2ccc(C)cc2)C1 (centres undefined) ?
0.746
